Test: Drug level in zebrafish blood at 10 mg/kg, po administered via gavage measured 0.5 hrs post compound administration by LC-MS/MS analysis
Type: ADME, organism-based, Danio rerio
Conditions: read-out: Drug uptake

# structure.smiles, unit.abbreviation, concentration at 0.5 h
records = [
    ("O=C(CC12CC3CC(CC(C3)C1)C2)Nc1cccc2nc(Cl)ccc12", "ng/mL", 235),
]

----------
Target: P2X purinoceptor 7 (Homo sapiens) (UniProt Q99572)
Sequence (whole entry): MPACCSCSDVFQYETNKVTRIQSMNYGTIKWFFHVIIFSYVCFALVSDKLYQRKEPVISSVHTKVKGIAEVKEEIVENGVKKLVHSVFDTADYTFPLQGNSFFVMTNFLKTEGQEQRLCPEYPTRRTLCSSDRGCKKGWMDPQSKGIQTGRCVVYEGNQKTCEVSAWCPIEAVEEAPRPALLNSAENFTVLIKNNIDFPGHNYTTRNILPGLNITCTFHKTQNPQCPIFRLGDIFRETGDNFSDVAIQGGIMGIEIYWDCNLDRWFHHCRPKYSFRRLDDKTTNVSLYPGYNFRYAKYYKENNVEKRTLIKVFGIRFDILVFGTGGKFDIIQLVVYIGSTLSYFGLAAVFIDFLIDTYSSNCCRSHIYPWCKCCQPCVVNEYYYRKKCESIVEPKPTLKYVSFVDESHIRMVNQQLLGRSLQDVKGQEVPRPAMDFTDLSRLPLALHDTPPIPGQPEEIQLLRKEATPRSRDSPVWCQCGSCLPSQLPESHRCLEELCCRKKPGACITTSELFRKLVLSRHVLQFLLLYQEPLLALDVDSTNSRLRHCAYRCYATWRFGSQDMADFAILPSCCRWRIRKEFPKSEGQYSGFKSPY
Test: Antagonist activity at human P2X7 receptor expressed in HEK293 cells assessed as inhibition of BzATP-induced EtBr uptake at 10 uM after 2 hrs by fluorescence assay relative to control
Assay type: cell-based
Active and inactive are the calls of the source. No cut-off for these calls is given here.
endpoint.label: inhibition

# structure.smiles, endpoint.value
records = [
    ("COc1ccc(Cn2c(=O)c(C(=O)NCCCc3ccccc3)cc3c(NC(=O)Cc4ccc(Cl)cc4)cccc32)cc1", "inactive"),
    ("O=C(CC12CC3CC(CC(C3)C1)C2)Nc1cccc2nc(-c3cccc(O)c3)ccc12", "66%"),
    ("COC(=O)c1cc2c(NC(=O)C34CC5CC(CC(C5)C3)C4)cccc2nc1Cl", "21%"),
    ("CCOC(=O)c1cc2c(NC(=O)C34CC5CC(CC(C5)C3)C4)cccc2n(Cc2ccc(OC)cc2)c1=O", "88%"),
    ("Nc1ccc(-c2ccc3c(NC(=O)CC45CC6CC(CC(C6)C4)C5)cccc3n2)cc1", "93%"),
    ("O=C(CC12CC3CC(CC(C3)C1)C2)Nc1cccc2nc(-c3ccc(O)cc3)ccc12", "95%"),
    ("COC(=O)c1cc2c(NC(=O)C34CC5CC(CC(C5)C3)C4)cccc2n(Cc2ccc([N+](=O)[O-])cc2)c1=O", "85%"),
    ("COC(=O)c1cc2c(NC(=O)CCC3CCCC3)cccc2n(Cc2ccc(OC)cc2)c1=O", "45%"),
    ("COC(=O)c1cc2c(NC(=O)C34CC5CC(CC(C5)C3)C4)cccc2n(Cc2ccc(C#N)cc2)c1=O", "inactive"),
    ("CNC(=O)c1cc2c(NC(=O)C34CC5CC(CC(C5)C3)C4)cccc2n(Cc2ccc(OC)cc2)c1=O", "42%"),
    ("COc1ccc(Cn2c(=O)c(C(=O)NCCc3ccc4c(c3)OCO4)cc3c(NC(=O)Cc4ccc(Cl)cc4)cccc32)cc1", "inactive"),
    ("O=C(CC12CC3CC(CC(C3)C1)C2)Nc1cccc2nc(-c3ccc(CO)cc3)ccc12", "98%"),
    ("COc1ccc(Cn2c(=O)c(C(=O)NCCc3ccc(Cl)cc3)cc3c(NC(=O)Cc4ccccc4)cccc32)cc1", "inactive"),
    ("COC(=O)c1cc2c(NC(=O)CC34CC5CC(CC(C5)C3)C4)cccc2n(Cc2ccc(OC)cc2)c1=O", "76%"),
    ("COC(=O)c1cc2c(NC(=O)C3CCCCC3)cccc2n(Cc2ccc(OC)cc2)c1=O", "88%"),
    ("O=C(CC12CC3CC(CC(C3)C1)C2)Nc1cccc2nc(Cl)ccc12", "97%"),
    ("COC(=O)c1cc2c(NC(=O)C34CC5CC(CC(C5)C3)C4)cccc2n(Cc2ccc(Cl)cc2)c1=O", "88%"),
    ("COc1ccc(CC(=O)Nc2cccc3c2cc(C(=O)NCCc2ccccc2)c(=O)n3Cc2ccc(OC)cc2)cc1", "8%"),
    ("COc1ccc(Cn2c(=O)c(C(=O)NCCc3ccccc3)cc3c(NC(=O)CCc4ccccc4)cccc32)cc1", "inactive"),
    ("COc1ccc(Cn2c(=O)c(C(=O)NCCc3ccc(C)cc3)cc3c(NC(=O)CCC4CCCC4)cccc32)cc1", "inactive"),
    ("COc1ccc(Cn2c(=O)c(C(=O)N(C)C)cc3c(NC(=O)C45CC6CC(CC(C6)C4)C5)cccc32)cc1", "54%"),
    ("COC(=O)c1cc2c(NC(=O)C34CC5CC(CC(C5)C3)C4)cccc2n(Cc2ccc(C)cc2)c1=O", "45%"),
    ("CCc1ccc(CCNC(=O)c2cc3c(NC(=O)COc4ccc(Cl)cc4)cccc3n(Cc3ccc(OC)cc3)c2=O)cc1", "inactive"),
    ("COc1ccc(Cn2c(=O)c(C(=O)NCCc3ccc(C)cc3)cc3c(NC(=O)Cc4ccccc4)cccc32)cc1", "13%"),
    ("COc1ccc(Cn2c(=O)c(C(=O)OC(C)C)cc3c(NC(=O)C45CC6CC(CC(C6)C4)C5)cccc32)cc1", "77%"),
    ("COC(=O)c1cc2c(NC(=O)C34CC5CC(CC(C5)C3)C4)cccc2n(Cc2ccccc2)c1=O", "inactive"),
    ("O=C(CC12CC3CC(CC(C3)C1)C2)Nc1cccc2nc(-c3ccc(C(=O)O)cc3)ccc12", "93%"),
    ("O=C(CC12CC3CC(CC(C3)C1)C2)Nc1cccc2nc(-c3ccc(Cl)cc3)ccc12", "90%"),
    ("COc1ccc(CCNC(=O)c2cc3c(NC(=O)CCc4ccccc4)cccc3n(Cc3ccc(OC)cc3)c2=O)cc1", "7%"),
    ("O=C(CC12CC3CC(CC(C3)C1)C2)Nc1cccc2nc(-c3ccccc3)ccc12", "86%"),
    ("COC(=O)c1cc2c(NC(=O)C34CC5CC(CC(C5)C3)C4)cccc2n(Cc2ccc(OC(F)(F)F)cc2)c1=O", "68%"),
    ("COc1ccc(Cn2c(=O)c(C(=O)NCCc3ccc(Cl)cc3)cc3c(NC(=O)COc4cccc(Cl)c4)cccc32)cc1", "inactive"),
    ("COC(=O)c1ccc(-c2ccc3c(NC(=O)CC45CC6CC(CC(C6)C4)C5)cccc3n2)cc1", "95%"),
    ("COC(=O)c1cc2c(NC(=O)CCc3ccccc3)cccc2n(Cc2ccc(OC)cc2)c1=O", "56%"),
]
